Experiment: Antiproliferative activity against human PC3M cells after 48 hrs by SRB assay
Assay type: functional, cell-based
Conditions: PC-3M
assay-metric: pIC50
// pIC50 here means minus log10 of the molar concentration (mol/L)

A selection of reference data follows.
# query: pIC50 of entry C#CCNC(=O)CC[C@@H](C)[C@H]1CC[C@H]2[C@@H]3CCC(C(=C)C)[C@](C)(CCC(=O)NCC#C)[C@H]3CC[C@]12C (stereo partly specified)
4.30

Consider the compound C=C(C)C1CC[C@H]2[C@@H]3CC[C@H]([C@H](C)CCC(=O)N4CCN(C(C)C)CC4)[C@@]3(C)CC[C@@H]2[C@@]1(C)CCC(=O)N1CCN(C(C)C)CC1 (stereo partly specified) and give its measured pIC50.
5.78

Given the entry C=C(C)C1CC[C@H]2[C@@H]3CC[C@H]([C@H](C)CCC(=O)NCc4ccccc4)[C@@]3(C)CC[C@@H]2[C@@]1(C)CCC(=O)NCc1ccccc1 (stereo partly specified) , report its measured pIC50.
4.87

What pIC50 value was documented for this compound, C=C(C)C1CC[C@H]2[C@@H]3CC[C@H]([C@H](C)CCC(=O)N(CC)CC)[C@@]3(C)CC[C@@H]2[C@@]1(C)CCC(=O)N(CC)CC (stereo partly specified) ?
4.96

Reported pIC50, compound C=C(C)C1CC[C@H]2[C@@H]3CC[C@H]([C@H](C)CCC(N)=O)[C@@]3(C)CC[C@@H]2[C@@]1(C)CCC(N)=O (stereo partly specified) : ____
4.41

Below: the item to evaluate.
Entry C=C(C)C1CC[C@H]2[C@@H]3CC[C@H]([C@H](C)CCC(=O)N4CCCC4)[C@@]3(C)CC[C@@H]2[C@@]1(C)CCC(=O)N1CCCC1 (stereo partly specified) has what pIC50?
4.49

Origin of the recorded values: ChEMBL document CHEMBL3867430
